biological target: Carbonic anhydrase 1 (Homo sapiens)
Sequence (P00915 whole entry): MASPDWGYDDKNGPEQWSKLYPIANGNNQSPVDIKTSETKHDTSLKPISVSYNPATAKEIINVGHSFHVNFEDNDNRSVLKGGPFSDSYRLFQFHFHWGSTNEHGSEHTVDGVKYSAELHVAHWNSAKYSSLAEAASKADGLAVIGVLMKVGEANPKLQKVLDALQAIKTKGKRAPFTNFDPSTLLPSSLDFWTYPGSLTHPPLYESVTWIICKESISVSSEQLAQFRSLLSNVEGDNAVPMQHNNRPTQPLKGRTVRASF
pKi: −log10 of the molar value.
pKi vs 5: at or above is TRUE, below is FALSE.

Answered cases to consult:
CCCCCCCCCCCCCCON(CC(=O)NO)S(=O)(=O)c1ccc(OC)cc1 | TRUE
COc1ccc(S(=O)(=O)N(CC(=O)NO)OC2C3CC4CC(C3)CC2C4)cc1 (configuration not stated) | TRUE
COc1ccc(S(=O)(=O)N(Cc2cccnc2)[C@@H](C(=O)NO)C(C)C)cc1 [CGS-27023A] | FALSE
COc1ccc(S(=O)(=O)N(CC(=O)NO)OCc2ccc(Cl)cc2)cc1 | FALSE
CCCCC(NOCc1ccccc1)C(=O)NO (configuration not stated) | FALSE
COc1ccc(S(=O)(=O)N(CC(=O)NO)OCc2ccccc2)cc1 | TRUE
CCC(C)C(NOCc1ccccc1)C(=O)NO (configuration not stated) | FALSE

Check this molecule for pKi at or above 5: COc1ccc(S(=O)(=O)N(CC(=O)NO)OCc2ccc(OCc3ccccc3)cc2)cc1
TRUE

---

Property: IC50; scope: individual compounds
target: Matrix metalloproteinase-9 (Homo sapiens)
Sequence (P14780 whole entry): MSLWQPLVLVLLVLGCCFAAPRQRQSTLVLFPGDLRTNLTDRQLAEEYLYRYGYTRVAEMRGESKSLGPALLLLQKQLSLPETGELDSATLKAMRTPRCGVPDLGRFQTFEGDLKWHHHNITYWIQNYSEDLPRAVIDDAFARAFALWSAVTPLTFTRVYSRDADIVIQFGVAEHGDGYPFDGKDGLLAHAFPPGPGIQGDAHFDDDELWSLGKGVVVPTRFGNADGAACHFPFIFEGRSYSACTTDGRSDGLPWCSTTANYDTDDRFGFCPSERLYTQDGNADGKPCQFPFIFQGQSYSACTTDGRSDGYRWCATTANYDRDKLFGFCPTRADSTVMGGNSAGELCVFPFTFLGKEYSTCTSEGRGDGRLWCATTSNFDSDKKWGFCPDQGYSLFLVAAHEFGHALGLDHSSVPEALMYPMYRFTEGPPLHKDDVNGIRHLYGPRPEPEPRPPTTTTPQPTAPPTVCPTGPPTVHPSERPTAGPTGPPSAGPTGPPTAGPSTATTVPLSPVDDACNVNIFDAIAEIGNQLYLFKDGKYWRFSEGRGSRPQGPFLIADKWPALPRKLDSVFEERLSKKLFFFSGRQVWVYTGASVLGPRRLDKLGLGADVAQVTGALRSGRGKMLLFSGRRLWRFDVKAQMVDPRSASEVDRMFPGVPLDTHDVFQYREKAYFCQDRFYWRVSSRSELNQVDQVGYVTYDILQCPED
All answers are understood in µM, so give the number only.

Solved entries (count: 5):
COc1ccc(S(=O)(=O)N(CC(=O)NO)OCc2ccc(OCc3ccccc3)cc2)cc1 | 1.83
O=C(CNOCc1ccccc1)NO | 256
CCCCCCCCCCCCCCON(CC(=O)NO)S(=O)(=O)c1ccc(OC)cc1 | 33
CC(NOCc1ccc(Cl)cc1)C(=O)NO (stereo unspecified) | 141
O=C(CNOCc1ccc(Cl)cc1)NO | 261

Which IC50 value is on record for COc1ccc(S(=O)(=O)N(CC(=O)NO)OC(C)C)cc1 ?
3.4

---

Target or system 72 kDa type IV collagenase (Homo sapiens): recorded log10 of IC50 listed per item.
Response schema: value (number) is log10 of IC50 in units of µM.

Solved entries (count: 3):
CCCCC(NOCc1ccccc1)C(=O)NO (stereo not drawn) | 1.53
CCCCC(NOCc1ccc(Cl)cc1)C(=O)NO (stereo not drawn) | 1.91
COc1ccc(S(=O)(=O)N(CC(=O)NO)OC2C3CC4CC(C3)CC2C4)cc1 (stereo not drawn) | 0.30

What value of log10 of IC50 on 72 kDa type IV collagenase (Homo sapiens) does COc1ccc(S(=O)(=O)N(CC(=O)NO)OCc2ccc(OCc3ccccc3)cc2)cc1 have?
0.32

What value of log10 of IC50 on 72 kDa type IV collagenase (Homo sapiens) does COc1ccc(S(=O)(=O)N(CC(=O)NO)OCc2ccccc2)cc1 have?
0.03

What value of log10 of IC50 on 72 kDa type IV collagenase (Homo sapiens) does O=C(CNOCc1ccccc1)NO have?
1.97

What value of log10 of IC50 on 72 kDa type IV collagenase (Homo sapiens) does CCCCCCCCCCCCCCON(CC(=O)NO)S(=O)(=O)c1ccc(OC)cc1 have?
1.48

What value of log10 of IC50 on 72 kDa type IV collagenase (Homo sapiens) does COc1ccc(S(=O)(=O)N(OC(C)C)C(C(=O)NO)C(C)C)cc1 (stereo not drawn) have?
-0.18

---

target: Carbonic anhydrase 9 (Homo sapiens, UniProt Q16790)
Simple rule here: Ki less than 8 µM is rule met, otherwise rule not met.

Answered cases to consult:
COc1ccc(S(=O)(=O)N(CC(=O)NO)OCc2ccc(Cl)cc2)cc1 | rule not met
CCCCC(NOCc1ccccc1)C(=O)NO (centres undefined) | rule met
CCC(C)ON(C(C(=O)NO)C(C)C)S(=O)(=O)c1ccc(OC)cc1 (centres undefined) | rule not met

Quick check: Ki of COc1ccc(S(=O)(=O)N(CC(=O)NO)OCc2ccccc2)cc1 under 8 µM?
rule met

Quick check: Ki of O=C(CNOCc1ccccc1)NO under 8 µM?
rule met

Quick check: Ki of CCC(C)C(NOCc1ccccc1)C(=O)NO (centres undefined) under 8 µM?
rule met

Quick check: Ki of COc1ccc(S(=O)(=O)N(CC(=O)NO)OCc2ccc(OCc3ccccc3)cc2)cc1 under 8 µM?
rule not met
